This collection of values is drawn from paper PMC9860708.

Experiment: Pharmacokinetic evaluation after oral administration of FMN solution and formulations (non-compartmental analysis)
Conditions: 20 mg/kg FMN, all three groups
Recorded Endpoint: Detection of analyte in rat plasma after oral administration of FMN

{"Compound": "Oc1ccc([C@H]2COc3cc(O)ccc3C2)cc1 [EQL, Equol]", "Measurement": "not quantitated"}
{"Compound": "COc1ccc(-c2coc3cc(O)ccc3c2=O)cc1 [FMN, Formononetin]", "Measurement": "detected"}
{"Compound": "O=C1c2ccc(O)cc2OCC1c1ccc(O)cc1 (stereo not shown) [DHD, Dihydrodaidzein]", "Measurement": "not quantitated"}
{"Compound": "O=c1c(-c2ccc(O)cc2)coc2cc(O)ccc12 [DZN, Daidzein]", "Measurement": "detected"}

====

Assay: Plasma protein binding assay (ultrafiltration, Centrifree)
Type: in vitro ADME
Conditions: 50 ng/mL, male SD rat plasma, n = 3
Recorded Endpoint: fraction unbound at 15 min, 50 ng/mL

{"Molecule": "O=C1c2ccc(O)cc2OCC1c1ccc(O)cc1 (stereo not drawn) [DHD, Dihydrodaidzein]", "Measurement": 0.118}
{"Molecule": "COc1ccc(-c2coc3cc(O)ccc3c2=O)cc1 [FMN, Formononetin]", "Measurement": 0.116}
{"Molecule": "O=c1c(-c2ccc(O)cc2)coc2cc(O)ccc12 [DZN, Daidzein]", "Measurement": 0.0456}

====

Experiment: Plasma protein binding assay (ultrafiltration, Centrifree)
Assay type: in vitro ADME
Conditions: 1000 ng/mL, male SD rat plasma, n = 3
Method: The plasma protein binding of FMN, DZN, DHD and EQL was estimated using Ultra-filtration method using Centrifree® micro-partition system (Amicon Inc., Lexington, MA, USA). […] Then, compound concentrations in the ultrafiltrate buffer (CUF) and plasma in the sample reservoir (Ctotal) were quantitated by the anlytical method described in Section 2.3. The plasma protein binding rate was calculated using the following formula: Plasma protein binding (%)=[…]
Recorded Endpoint: fraction unbound at 15 min, 1000 ng/mL

{"Compound": "O=c1c(-c2ccc(O)cc2)coc2cc(O)ccc12", "Measurement": 0.0531}

[a] COc1ccc(-c2coc3cc(O)ccc3c2=O)cc1
[b] O=C1c2ccc(O)cc2OCC1c1ccc(O)cc1 (stereo not shown) [DHD, Dihydrodaidzein]
[c] Oc1ccc([C@H]2COc3cc(O)ccc3C2)cc1
Put the items in order so that reported fraction unbound at 15 min, 1000 ng/mL rises from first to last. Provide the ranking by listing each label in its place in the requested order. c, a, b
(c: 0.022, a: 0.082, b: 0.132)

====

Test: Plasma protein binding assay (ultrafiltration, Centrifree)
Format: in vitro ADME
Conditions: 500 ng/mL, male SD rat plasma, n = 3
Recorded Endpoint: fraction unbound at 15 min, 500 ng/mL

Worked cases, answers included:
{"Compound": "O=C1c2ccc(O)cc2OCC1c1ccc(O)cc1 (stereo not shown) [DHD, Dihydrodaidzein]", "fraction unbound at 15 min, 500 ng/mL": 0.12}
{"Compound": "O=c1c(-c2ccc(O)cc2)coc2cc(O)ccc12", "fraction unbound at 15 min, 500 ng/mL": 0.0569}

[P] COc1ccc(-c2coc3cc(O)ccc3c2=O)cc1
[Q] Oc1ccc([C@H]2COc3cc(O)ccc3C2)cc1
// select label with min value of measured fraction unbound at 15 min, 500 ng/mL from [ P , Q ] Give the label under which the chosen entry appears. Q

====

Assay: Plasma protein binding assay (ultrafiltration, Centrifree)
Assay type: in vitro ADME
Details: 150 ng/mL, male SD rat plasma, n = 3
Recorded Endpoint: fraction unbound at 15 min, 150 ng/mL

Worked cases, answers included:
{"Compound": "Oc1ccc([C@H]2COc3cc(O)ccc3C2)cc1 [EQL, Equol]", "Recorded Endpoint": "fraction unbound at 15 min, 150 ng/mL", "Measurement": 0.0131}
{"Compound": "O=c1c(-c2ccc(O)cc2)coc2cc(O)ccc12 [DZN, Daidzein]", "Recorded Endpoint": "fraction unbound at 15 min, 150 ng/mL", "Measurement": 0.0342}

[I] O=C1c2ccc(O)cc2OCC1c1ccc(O)cc1 (stereo not shown) [DHD, Dihydrodaidzein]
[II] COc1ccc(-c2coc3cc(O)ccc3c2=O)cc1 [FMN, Formononetin]
// select label with min value of measured fraction unbound at 15 min, 150 ng/mL from [ I , II ] Give the label under which the chosen entry appears. II
